Data credit: patent US12492410B2

Test system: minocycline dAb (SEQ ID NO: 8)
Sequence (as listed by the source): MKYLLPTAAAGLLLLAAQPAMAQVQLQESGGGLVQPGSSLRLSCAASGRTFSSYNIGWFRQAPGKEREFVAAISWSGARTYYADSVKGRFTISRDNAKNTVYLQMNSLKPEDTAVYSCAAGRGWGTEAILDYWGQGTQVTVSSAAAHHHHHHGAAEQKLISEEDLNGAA
protocol details: Phage-peptide screening for minocycline-displaceable binding to minocycline dAb
condition description: minocycline dAb-Fc immobilised on beads; with and without 1 μM minocycline; control antibody SEQ ID NO: 13
measurement label: displaceable specificity for minocycline dAb

1. ACPQWAMMFC (minocycline peptide mimic) [SEQ ID NO: 36]; displaceable specificity
2. ACPGWARAFC (minocycline peptide mimic) [SEQ ID NO: 34]; displaceable specificity
3. ACPPWAYSFC (minocycline peptide mimic) [SEQ ID NO: 37]; displaceable specificity
4. ACPHWAQAFC (minocycline peptide mimic) [SEQ ID NO: 35]; displaceable specificity
